system: A498 renal; assay: NCI tumour cell line growth inhibition, 48 h
Each entry below carries its reported TGI.

Answered cases to consult:
cpd-smiles: O=C(CCc1nc(=S)[nH][nH]1)Nc1cc(Cl)ccc1Cl
measured-on: A498 renal
TGI: > 100 µM

cpd-smiles: Cc1ccsc1/C=N/NC1=NCCN1
measured-on: A498 renal
TGI: > 100 µM

# next compound below
Q: Request the reported TGI associated with COc1ccc(-c2nc(-c3ccc(OC)cc3)n(-c3ccccc3)n2)cc1
A: > 100 µM

###

test system: K-562 leukemia; experiment: NCI tumour cell line growth inhibition, 48 h
Each entry below carries its reported TGI.

Answered cases to consult:
compound: O=C1NC(=O)C(C(=O)C(=O)Nc2cc(Cl)ccc2Cl)C(=O)N1
TGI: > 100 µM
//
compound: O=C(COc1ccc(/C=C2\Oc3ccc4ccccc4c3C2=O)cc1)c1ccc([N+](=O)[O-])cc1
TGI: > 100 µM
//
compound: CN(C)CCCNC(=O)N/N=C/c1ccc(O)cc1
TGI: > 100 µM
//
compound: COc1ccc(CN(CCN(C)C)c2ccccn2)cc1 (tested in a mixture with another compound)
TGI: > 100 µM
//
compound: CC(C)N(C(=O)C12C3C4C1C1C2C3C41C(=O)C(C)(C)C)C(C)C (stereo not given)
TGI: > 100 µM
//
compound: Oc1ccc(-c2c3ccccc3c(-c3ccc(O)cc3)c3ccccc23)cc1
TGI: > 100 µM
//
compound: Clc1ccc(-c2cc(-c3ccccc3)nc(N3CCN(CCCNc4ccnc5cc(Cl)ccc45)CC3)n2)cc1
TGI: 2.31 µM
//
compound: CN1C(=O)N(C)C2(CCN(CC(CC3OCCO3)c3ccc(F)cc3)CC2)C1=O (stereo not given)
TGI: > 100 µM
//
compound: CC(=N/NC(=S)N1CCCCCC1)/C(C)=N\NC(=S)N1CCCCCC1
TGI: > 100 µM
//
compound: Oc1ccc2ccccc2c1CCc1c(O)ccc2ccccc12
TGI: 24.9 µM

Q: Request the reported TGI associated with C[C@@H](C1CC[C@H]2[C@@H]3[C@@H]4O[C@@H]4[C@@]4(O)CC=CC(=O)[C@]4(C)[C@H]3C[C@H](O)[C@]12C)[C@H]1C[C@]2(C)O[C@]2(C)C(=O)O1 (stereo not given in full)
A: > 100 µM

Q: Request the reported TGI associated with O=[N+]([O-])c1cc(C2(N3CCCCC3)CCCCC2)sc1Br
A: 14.1 µM

Q: Request the reported TGI associated with Cc1ccsc1/C=N/NC1=NCCN1
A: > 100 µM

Q: Request the reported TGI associated with OC1(c2ccccc2)CC2CCC(C1)N2CCCC(O)(c1ccccc1)c1ccccc1 (stereo not given)
A: 37.8 µM

Q: Request the reported TGI associated with Cc1noc2cccc(O)c12
A: > 100 µM

Q: Request the reported TGI associated with CCN(CC)CCNc1c2ccccc2nc2cccc([N+](=O)[O-])c12
A: 0.121 µM

Q: Request the reported TGI associated with CCC(=O)OC1CCn2c1nc1c2C(=O)C(C)=C(NC(C)=O)C1=O (stereo not given)
A: 4.43 µM

Q: Request the reported TGI associated with C[C@@H](Nc1nc(N[C@H](C)C(F)(F)F)nc(-c2cccc(Cl)n2)n1)C(F)(F)F
A: > 100 µM

Q: Request the reported TGI associated with CC(C)C[S+]1C2=C([O-])CC(C)(C)CC2=Nc2ccccc21 (stereo not given)
A: > 100 µM

Q: Request the reported TGI associated with Cc1nnc(C[C@@H]2C=C(c3ccc(Cl)cc3)c3ccccc3-n3c(C)nnc32)o1
A: > 100 µM
